Each entry below carries its recorded pIC50.
# Tested on: MV4-11
# ASSAY METHOD TEXT: cells
# EXPERIMENTAL PARAMETERS: Homo sapiens, MV4-11, 168 h
# Description: Antiproliferative activity against human MV4-11 cells after 168 hrs by MTS assay
The read-out pIC50 is expressed as -log10 of concentration in moles per litre.

# count of solved cases: 3
FC(F)(F)Cc1cc2c(N[C@H]3CC[C@H](CN[C@@H]4C[C@H]4c4ccccc4)CC3)ncnc2s1 :: 5.53
Fc1ccc([C@@H]2C[C@H]2N[C@H]2CC[C@H](Nc3ncnc4sc(CC(F)(F)F)cc34)CC2)cc1F :: 5.70
Fc1ccc([C@@H]2C[C@H]2N[C@H]2CC[C@@H](Nc3ncnc4sc(CC(F)(F)F)cc34)CC2)cc1F :: 6.29

Lab note: next compound to report on.
input: Any idea what pIC50 was measured for "FC(F)(F)Cc1cc2c(N[C@H]3CC[C@H](N[C@H]4C[C@@H]4c4ccccc4)CC3)ncnc2s1" ?
output: 5.44

----------
Protein target, amino acids: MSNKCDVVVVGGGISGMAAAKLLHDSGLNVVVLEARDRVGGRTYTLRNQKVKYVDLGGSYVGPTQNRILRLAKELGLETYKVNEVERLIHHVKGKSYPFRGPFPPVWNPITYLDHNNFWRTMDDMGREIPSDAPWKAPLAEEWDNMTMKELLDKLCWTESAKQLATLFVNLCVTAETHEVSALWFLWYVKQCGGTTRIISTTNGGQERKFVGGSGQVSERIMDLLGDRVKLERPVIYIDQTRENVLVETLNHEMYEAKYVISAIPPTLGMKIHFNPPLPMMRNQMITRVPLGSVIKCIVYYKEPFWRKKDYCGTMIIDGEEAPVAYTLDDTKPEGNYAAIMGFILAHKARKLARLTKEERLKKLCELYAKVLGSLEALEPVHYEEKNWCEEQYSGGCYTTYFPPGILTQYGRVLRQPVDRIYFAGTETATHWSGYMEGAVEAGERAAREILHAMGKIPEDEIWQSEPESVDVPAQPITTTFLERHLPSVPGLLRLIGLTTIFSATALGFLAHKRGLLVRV
OBSERVATION TYPE: pIC50
Note: pIC50 values are expressed as the negative base-10 logarithm of concentration in M.

For orientation, consider the following solved cases.
FC(F)(F)Cc1cc2c(N3CCC(CN[C@@H]4C[C@H]4c4ccccc4)CC3)ncnc2s1 :: 5.94
FC(F)(F)Cc1cc2c(N3CCC(CN[C@H]4C[C@@H]4c4ccccc4)CC3)ncnc2s1 :: 5.02
FC(F)(F)Cc1cc2c(N[C@H]3CC[C@H](CN[C@H]4C[C@@H]4c4ccccc4)CC3)ncnc2s1 :: 4.66
Fc1ccc([C@@H]2C[C@H]2NCC2CCN(c3ncnc4sc(CC(F)(F)F)cc34)CC2)cc1F :: 4.31

input: Name the reported pIC50 value associated with the compound "FC(F)(F)Cc1cc2c(N3CCC(N[C@H]4C[C@@H]4c4ccccc4)CC3)ncnc2s1"
output: 4.44

input: Another compound: "FC(F)(F)Cc1cc2c(N[C@H]3CC[C@H](CN[C@@H]4C[C@H]4c4ccccc4)CC3)ncnc2s1"
output: 5.32

input: One more compound: "Fc1ccc([C@@H]2C[C@H]2N[C@H]2CC[C@@H](Nc3ncnc4sc(CC(F)(F)F)cc34)CC2)cc1F"
output: 5.92

----------
Sequence of the target: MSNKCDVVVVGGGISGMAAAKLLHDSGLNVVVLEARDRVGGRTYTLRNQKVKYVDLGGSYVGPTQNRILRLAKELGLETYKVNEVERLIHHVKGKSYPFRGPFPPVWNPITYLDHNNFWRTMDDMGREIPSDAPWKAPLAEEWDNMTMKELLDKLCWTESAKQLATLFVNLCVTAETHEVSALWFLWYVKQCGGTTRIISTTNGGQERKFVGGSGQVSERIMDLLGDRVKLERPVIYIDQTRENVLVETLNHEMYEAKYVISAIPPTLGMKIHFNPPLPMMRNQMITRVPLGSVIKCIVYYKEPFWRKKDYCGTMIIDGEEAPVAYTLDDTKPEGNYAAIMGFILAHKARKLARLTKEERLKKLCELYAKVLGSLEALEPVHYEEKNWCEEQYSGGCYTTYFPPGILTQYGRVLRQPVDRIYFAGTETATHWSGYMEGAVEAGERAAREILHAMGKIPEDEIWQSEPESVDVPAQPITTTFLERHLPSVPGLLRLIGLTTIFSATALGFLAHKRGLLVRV
Could you please mark TRUE for values of IC50 below 70 µM and FALSE for values at or above it?

FC(F)(F)Cc1cc2c(N[C@H]3CC[C@H](N[C@H]4C[C@@H]4c4ccccc4)CC3)ncnc2s1 :: TRUE
FC(F)(F)Cc1cc2c(N[C@H]3CC[C@@H](N[C@H]4C[C@@H]4c4ccccc4)CC3)ncnc2s1 :: FALSE
FC(F)(F)Cc1cc2c(N3CCC(N[C@@H]4C[C@H]4c4ccccc4)CC3)ncnc2s1 :: TRUE

input: Record "Fc1ccc([C@@H]2C[C@H]2NC2CCN(c3ncnc4sc(CC(F)(F)F)cc34)CC2)cc1F" : is its IC50 strictly below 70 µM?
output: FALSE

input: Cool, now "O=C(O)c1ccc(CN2CCC(CN[C@@H]3C[C@H]3c3ccccc3)CC2)cc1"
output: FALSE

input: Same lookup for "Fc1ccc([C@@H]2C[C@H]2NC[C@H]2CC[C@H](Nc3ncnc4sc(CC(F)(F)F)cc34)CC2)cc1F" , please.
output: TRUE

input: Next entry: "FC(F)(F)Cc1cc2c(N[C@H]3CC[C@@H](N[C@@H]4C[C@H]4c4ccccc4)CC3)ncnc2s1"
output: TRUE

Where these numbers come from: ChEMBL document CHEMBL4368922
